src = ChEMBL document CHEMBL4118122

targetSystem: Neuropeptide Y receptor type 1 (Homo sapiens)
Sequence (P25929 whole entry): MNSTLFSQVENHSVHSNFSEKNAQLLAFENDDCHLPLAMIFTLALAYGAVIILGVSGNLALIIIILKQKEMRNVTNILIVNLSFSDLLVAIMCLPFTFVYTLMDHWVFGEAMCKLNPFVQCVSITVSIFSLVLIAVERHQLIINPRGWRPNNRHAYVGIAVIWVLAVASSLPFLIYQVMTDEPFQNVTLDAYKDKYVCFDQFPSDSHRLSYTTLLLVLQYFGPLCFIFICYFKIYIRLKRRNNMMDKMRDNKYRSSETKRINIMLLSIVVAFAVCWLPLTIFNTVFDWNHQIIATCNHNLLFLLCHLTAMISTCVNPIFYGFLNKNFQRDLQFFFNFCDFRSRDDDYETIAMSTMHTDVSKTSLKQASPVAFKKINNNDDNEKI
pIC50: −log10 of the molar value.
measuredParameter: pIC50

>>> df
                                        mol                              targetsystem  readoutvalue
0  CC(C)(C)NS(=O)(=O)c1ccc(-c2sc(C(=O)N[C@H]3C[C@H](C(=O)O)C3)nc2CC2CCCCC2)c2ccccc12  Neuropeptide Y receptor type 1 (Homo sapiens)          9.89

###

targetSystem: Vasoactive intestinal polypeptide receptor 1 (Homo sapiens, UniProt P32241)
Sequence (P32241 whole entry): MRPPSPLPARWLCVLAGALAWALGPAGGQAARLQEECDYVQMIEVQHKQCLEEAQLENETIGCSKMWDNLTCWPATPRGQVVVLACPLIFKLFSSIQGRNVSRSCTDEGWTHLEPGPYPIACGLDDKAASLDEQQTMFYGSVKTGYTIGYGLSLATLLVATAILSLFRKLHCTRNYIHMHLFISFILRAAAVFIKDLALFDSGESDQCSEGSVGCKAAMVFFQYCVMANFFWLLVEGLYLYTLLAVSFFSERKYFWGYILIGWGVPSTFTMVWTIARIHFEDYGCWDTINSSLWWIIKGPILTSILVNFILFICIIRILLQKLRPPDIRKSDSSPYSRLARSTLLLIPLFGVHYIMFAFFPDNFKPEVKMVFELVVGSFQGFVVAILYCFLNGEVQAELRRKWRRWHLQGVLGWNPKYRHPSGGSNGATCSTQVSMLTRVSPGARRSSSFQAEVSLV
procedureText: Displacement of [125I]VIP from human recombinant VPAC1 receptor after 60 mins by scintillation counting analysis
measuredParameter: IC50

In [3]: df
Out[3]:
                                        mol  readoutvalue
0  CC(C)(C)NS(=O)(=O)c1ccc(-c2sc(C(=O)N[C@H]3C[C@H](C(=O)O)C3)nc2CC2CCCCC2)c2ccccc12       0.47 nM
